- Tested on: Calu-3
- assay details: cell viability relative to DMSO; higher = less toxic
- measurement parameters: 72 h; 10 nM
Give measured cell viability for each item. Keep answers brief.
Numbers only, in %.

- compound: "NCCc1cc[nH]n1"
  units: "%"
  cell viability: 102

Respectfully, I request cell viability for each entry included below.
1. CC(=O)OC[C@H]1O[C@@H]([S-])[C@H](OC(C)=O)[C@@H](OC(C)=O)[C@@H]1OC(C)=O.CCP(CC)CC.[Au+]
2. CCCNC(=O)N1N=C(c2ccc(N)cc2)c2cc3c(cc2C1C)OCO3 (centres undefined)
3. CN1C(=O)CCS(=O)(=O)C1c1ccc(Cl)cc1 (centres undefined)
4. Nc1ccn(C[C@@H](CO)OCP(=O)(O)O)c(=O)n1

92.8
101
102
104

* * *

- Tested on: HepG2
- assay details: cell viability relative to DMSO; higher = less toxic
- measurement parameters: 72 h; 1 nM
endpoint name: cell viability (%)
Numbers only, in %.

Take a look at these entries with their results.
- compound structure: "CC(=O)[C@]1(O)Cc2c(O)c3c(c(O)c2[C@@H](O[C@H]2C[C@H](N)[C@H](O)[C@H](C)O2)C1)C(=O)c1ccccc1C3=O"
  units: "%"
  cell viability: 94.8
- compound structure: "Cc1cc(O)c(C(C)C)cc1Cl"
  units: "%"
  cell viability: 89.8

Respectfully, I request cell viability for each entry included below.
1. CN[C@@H]1[C@@H](O[C@H]2O[C@H](CO)[C@@H](N)[C@H](O)[C@H]2O)O[C@H]2C[C@@H](N)[C@@H](O[C@H]3[C@H](O)[C@@H](O)[C@H](N)C[C@@H]3N)O[C@@H]2[C@@H]1O
2. O=P(O)(O)C(O)(Cc1cnc2ccccn12)P(=O)(O)O

1. 106
2. 99.2

* * *

Give measured drug sensitivity score for each item. Keep answers brief.
- System: Calu-3
- assay details: drug sensitivity score (DSS) for viability; higher = more toxic; extreme values may be limits of the assay
- measurement parameters: 72 h
Give bare numbers.

Take a look at these entries with their results.
- compound: "CCC[C@@H]1C[C@@H](C(=O)N[C@@H]([C@H]2O[C@H](SC)[C@H](O)[C@@H](O)[C@H]2O)[C@@H](C)O)N(C)C1"
  endpoint name: "drug sensitivity score"
  recorded value: 0
- compound: "Cc1cccc(-c2[nH]c(CNc3ccccc3F)nc2-c2ccc3ncnn3c2)n1"
  endpoint name: "drug sensitivity score"
  recorded value: 0
- compound: "CC(ONC(=O)c1cc(C(F)(F)F)cc(C(F)(F)F)c1)C(=O)Nc1ccc(Cl)cc1 (stereo not drawn)"
  endpoint name: "drug sensitivity score"
  recorded value: 0
- compound: "CN(C)C/C=C/C(=O)Nc1cccc(C(=O)Nc2cccc(Nc3ncc(Cl)c(-c4c[nH]c5ccccc45)n3)c2)c1"
  endpoint name: "drug sensitivity score"
  recorded value: 14.9
- compound: "Nc1nc(/C(=C/CC(=O)O)C(=O)N[C@@H]2C(=O)N3C(C(=O)O)=CCS[C@H]23)cs1"
  endpoint name: "drug sensitivity score"
  recorded value: 0
- compound: "CO[C@@H](C(=O)N1Cc2[nH]nc(NC(=O)c3ccc(N4CCN(C)CC4)cc3)c2C1)c1ccccc1"
  endpoint name: "drug sensitivity score"
  recorded value: 7.5
- compound: "CCCCCCCCCCCC[N+](C)(C)CCOc1ccccc1"
  endpoint name: "drug sensitivity score"
  recorded value: 3.9
- compound: "Cc1ccc(NC2=NCCN2)c(Cl)c1"
  endpoint name: "drug sensitivity score"
  recorded value: 0
- compound: "CC1=C(C(=O)O)N2C(=O)[C@@H](NC(=O)[C@H](N)c3ccc(O)cc3)[C@H]2SC1"
  endpoint name: "drug sensitivity score"
  recorded value: 0
- compound: "Cn1c(=O)c2c(ncn2C)n(C)c1=O"
  endpoint name: "drug sensitivity score"
  recorded value: 0

Respectfully, I request drug sensitivity score for each entry included below.
1. c1ccc(N2CCN(Cc3nc4ccccc4[nH]3)CC2)nc1
2. Cc1ccc(C)c(OCCCC(C)(C)C(=O)O)c1
3. CN(C)[C@@H]1C(O)=C(C(N)=O)C(=O)[C@@]2(O)C(O)=C3C(=O)c4c(O)cccc4[C@@](C)(O)[C@H]3C[C@@H]12
4. CC(C)(C)c1cc(C(C)(C)C)c(NC(=O)c2c[nH]c3ccccc3c2=O)cc1O
5. Cc1ccccc1C(C(=O)NC1CCCCC1)N(C(=O)Cn1ccnc1C)c1cccc(F)c1 (stereo not drawn)
6. CN(C)c1cccc(Oc2cnc(Nc3cccc(O)c3)nc2)c1

1: 0; 2: 0; 3: 0; 4: 0.7; 5: 0.8; 6: 0

Respectfully, I request drug sensitivity score for each entry included below.
1. CCCCOC(=O)c1ccc(N)cc1
2. CCN(Cc1ccc(Cl)nc1)/C(=C/[N+](=O)[O-])NC
3. COC(=O)C1=C(C)NC(C)=C(C(=O)NCCCN2CCC(c3ccccc3)(c3ccccc3)CC2)C1c1ccc([N+](=O)[O-])cc1 (stereo not drawn)
4. N=C(N)NC(=N)NCCc1ccccc1
5. COc1cc2c(cc1OC)-c1c/c(=N\c3c(C)cc(C)cc3C)n(C)c(=O)n1CC2
6. CCCCCCCCCCC(=O)O[C@H]1CC[C@H]2[C@@H]3CCC4=CC(=O)CC[C@]4(C)[C@H]3CC[C@]12C [Testosterone (undecanoate)]
7. O=[N+]([O-])c1cc(O)c(O)c([N+](=O)[O-])c1
8. FC(F)c1nc2ccccc2n1-c1nc(N2CCOCC2)nc(N2CCOCC2)n1

1: 0; 2: 0; 3: 4.4; 4: 0; 5: 0.2; 6: 0; 7: 0; 8: 5.6

Respectfully, I request drug sensitivity score for each entry included below.
1. O=C1NC(=O)/C(=C/c2ccc3c(c2)OC(F)(F)O3)S1
2. CC[C@H](C)C[C@H](C)CCCCCCCCC(=O)N[C@H]1C[C@@H](O)[C@@H](NCCN)NC(=O)[C@@H]2[C@@H](O)CCN2C(=O)[C@H]([C@H](O)CCN)NC(=O)[C@H]([C@H](O)[C@@H](O)c2ccc(O)cc2)NC(=O)[C@@H]2C[C@@H](O)CN2C(=O)[C@H]([C@@H](C)O)NC1=O
3. Cc1ccc(NC(=O)c2ccc(CN3CCN(C)CC3)cc2)cc1Nc1nc(-c2cccnc2)cs1
4. COc1ccccc1N1CCN(CC(O)COc2cc(OC)c(OC)c(OC)c2)CC1 (stereo not drawn)
5. CCO[C@@H]1OC(=O)C[C@@H]1NC(=O)[C@@H]1CCCN1C(=O)[C@@H](NC(=O)c1ccc(N)c(Cl)c1)C(C)(C)C
6. O=C(Nc1ccccc1Br)N[C@@H]1CCN(c2ccc(C(F)(F)F)cn2)C1
7. CNC[C@H](O)c1cccc(O)c1
8. CNc1ccc([N+](=O)[O-])cc1-n1cnc(-c2ccc(C(F)(F)F)cc2)c1

[20.7, 0.1, 1.2, 0, 0, 0, 0, 0]

Assign drug sensitivity score to the following record: C[C@H](CCC(=O)O)[C@H]1CC[C@H]2[C@@H]3CC[C@@H]4C[C@H](O)CC[C@]4(C)[C@H]3C[C@H](O)[C@]12C
0

* * *

- Test system: Calu-3
- assay details: drug sensitivity score (DSS) for viability; higher = more toxic; extreme values may be limits of the assay
- measurement parameters: 72 h
Give measured drug sensitivity score for each item. Keep answers brief.

- compound: "CCn1c(-c2nonc2N)nc2cncc(C(=O)N3CC[C@H](N)C3)c21"
  recorded value: 0

Respectfully, I request drug sensitivity score for each entry included below.
1. N[C@@H](Cc1cc(CP(=O)(O)O)cc(-c2ccccc2Cl)c1)C(=O)O
2. CC[C@@]1(O)C(=O)OCc2c1cc1n(c2=O)Cc2cc3cc(O)ccc3nc2-1 [10-hydroxycamptothecin]
3. COC1=C(OC)C(=O)C(CCCCCCCCCCO)=C(C)C1=O
4. COc1ccc(-c2csc(NC(=O)[C@H]3CCCCN3S(=O)(=O)c3ccc(C)cc3)n2)cc1

1: 0; 2: 20.5; 3: 0; 4: 0

* * *

- Test system: Vero E6
- assay details: cell viability relative to DMSO; higher = less toxic
- measurement parameters: 72 h; 1 nM
endpoint name: cell viability
Respond with a number, then the unit of measure.

- molecule: "NCCc1cc[nH]n1"
  endpoint name: "cell viability"
  recorded value: "94.4%"
- molecule: "CNC(=O)c1cc(Oc2ccc(NC(=O)Nc3ccc(Cl)c(C(F)(F)F)c3)c(F)c2)ccn1"
  endpoint name: "cell viability"
  recorded value: "94.7%"
- molecule: "CN1c2ccccc2C(=O)N2CCc3c([nH]c4ccccc34)C21 (stereo in doubt)"
  endpoint name: "cell viability"
  recorded value: "89.9%"

Respectfully, I request cell viability for each entry included below.
1. O=C(O)CCn1c2c(c3ccccc31)C[C@H](NS(=O)(=O)c1ccc(F)cc1)CC2
2. CNNCc1ccc(C(=O)NC(C)C)cc1
3. CNCCN(C)Cc1c[nH]nc1-c1ccc(O[C@H]2C[C@H](OCCC3CCOCC3)C2)cc1

["98%", "103%", "100%"]

Respectfully, I request cell viability for each entry included below.
1. Cc1cc(C#N)cc(C)c1Oc1nc(Nc2ccc(C#N)cc2)nc(N)c1Br
2. CC(=O)O[C@]1(C(C)=O)CC[C@H]2[C@@H]3C=C(C)C4=CC(=O)CC[C@@H]4[C@H]3CC[C@@]21C [nomegestrol-acetate]

1: 97.5%; 2: 100%
